test system: glycogen synthase kinase-3 (GSK3A per assay name; protocol says GSK3B); experiment: GSK3 binders on small-molecule microarrays, primary screen, biochemical, small-molecule microarray, 635 nm fluorescence, GSK3A (AID 1103); settings: small-molecule microarray binding, fluorescence 635 nm; higher = more signal; further: the record names both GSK3A and GSK3B
Measurement label: composite z-score
Enter a number only.

Short answer for `CC(C)OC(=O)C=C1C[C@@H](c2ccc(C#N)cc2)O[C@@H](c2ccc(C#N)cc2)O1` : composite z-score was 1.29

Short answer for `O=C(CS)NCCCCCNC(=O)[C@H]1C[C@H]2C(=O)N3CCC[C@H]3C(=O)N2[C@H]1c1cccc(OCCO)c1` : composite z-score was 1.32

Short answer for `CO[C@@H]1COC(=O)CC=C[C@@H](C)COC(=O)[C@H](COCc2ccccc2)NC(=O)CC=C[C@H]1C` : composite z-score was 0.19

Short answer for `CCOC(=O)C1=CC[C@H]2C(=O)N(CC)C(=O)[C@@H]12` : composite z-score was 0.947

Short answer for `O=C(CS)NCCCCCNC(=O)[C@@H]1C[C@@H]2C(=O)N[C@@H](Cc3ccccc3)C(=O)N2[C@@H]1c1ccc(O)cc1` : composite z-score was 1.17
